Test system: SNB-78
experiment description: NCI tumour cell line growth inhibition, 48 h
Activity calls are given as the source filed them. Rule as the data show it: active = GI50 up to about 1.1 µM and inactive = higher.
endpoint: GI50

COC(=O)C1=C(c2ccc3c(c2)OCO3)OC(c2cc(OC)c(OC)c(OC)c2)C1 (configuration not stated)	10.4 µM (inactive)
COc1ccc(-c2cn3ccsc3n2)cc1	> 100 µM (inactive)
COc1cc(O)c(C(=O)/C=C/c2ccc(OC)c(OCc3ccccc3)c2)c(OC)c1	2.57 µM (inactive)
CC[n+]1c(/C=C/c2ccc(N(CCCl)CCCl)cc2)ccc2cc(NC(=O)/C=C/c3ccccc3)ccc21	1.51 µM (inactive)
O=C1CCC2CCOc3ccc(O)c1c32 (configuration not stated)	> 100 µM (inactive)
CCOc1ccc(/C=N\N2C(=O)c3ccccc3C2=O)cc1	> 100 µM (inactive)
O/N=C/c1ccc(O)c(O)c1	> 100 µM (inactive)
